Attribution: patent US20260209352A1

Cell Binding cCD3 (FOB) values for the binders below.
- MEASURED TARGET: T1, Cynomolgus CD3 on Cyno CD3+ Jurkat cells (cynomolgus, UniProt Q95LI5 22-198)
- T1 construct: whole, on cells; CD3 on cells; also called cCD3
- T1 sequence (Q95LI5 22-198): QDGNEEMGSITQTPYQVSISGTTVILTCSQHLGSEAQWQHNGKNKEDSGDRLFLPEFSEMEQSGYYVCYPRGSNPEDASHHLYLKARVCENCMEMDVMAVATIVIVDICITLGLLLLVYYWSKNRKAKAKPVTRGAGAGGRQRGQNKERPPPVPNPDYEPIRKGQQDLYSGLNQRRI
- METHOD DESCRIPTION: cell binding cCD3, fold over background
OBSERVABLE: Cell Binding cCD3 (FOB)

[[record]]
binder = "ADI-46375 (antibody, V domains shown, also called Ab38) VH: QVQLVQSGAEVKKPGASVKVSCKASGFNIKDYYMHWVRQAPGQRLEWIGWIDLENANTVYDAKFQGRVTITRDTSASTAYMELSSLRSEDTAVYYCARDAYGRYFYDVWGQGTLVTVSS VL: DIVMTQSPDSLAVSLGERATINCKSSQSLLNARTRKNYLAWYQQKPGQPPKLLIYWASTRESGVPDRFSGSGSGTDFTLTISSLQAEDVAVYYCTQSYFRRTFGGGTKVEIK"
observable = "Cell Binding cCD3 (FOB)"
result = "40 FOB"

[[record]]
binder = "ADI-45967 (antibody, V domains shown, also called Ab3) VH: QVQLVQSGAEVKKPGASVKVSCKASGFNIKDYYMHWVRQAPGQRLEWIGWIDLENANTVYDAKFQGRVTIARDTSASTVYMELSSLRSEDTAVYYCARDAYGRYFYDVWGQGTLVTVSS VL: DIVMTQSPDSLAVSLGERAIINCKSSQSLLNARTGKNYLAWYQQKPGQPPKLLIYWASTRESGVPDRFSGSGSGTDFTLTISSLQAEDVAVYYCTQSYFRRTFGGGTKVEIK"
observable = "Cell Binding cCD3 (FOB)"
result = "59 FOB"

[[record]]
binder = "ADI-46357 (antibody, V domains shown, also called Ab30) VH: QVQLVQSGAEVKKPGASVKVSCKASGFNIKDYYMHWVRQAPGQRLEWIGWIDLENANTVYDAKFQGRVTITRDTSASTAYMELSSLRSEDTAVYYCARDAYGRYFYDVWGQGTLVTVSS VL: DIVMTQSPDSLAVSLGERATINCKSSQSLLNARTGKNYLAWYQQKPGQPPKLLIYWASTRESGVPDRFSGSGSGTDFTLTISSLQAEDVAVYYCAQSYFRRTFGGGTKVEIK"
observable = "Cell Binding cCD3 (FOB)"
result = "80 FOB"

[[record]]
binder = "ADI-46356 (antibody, V domains shown) VH: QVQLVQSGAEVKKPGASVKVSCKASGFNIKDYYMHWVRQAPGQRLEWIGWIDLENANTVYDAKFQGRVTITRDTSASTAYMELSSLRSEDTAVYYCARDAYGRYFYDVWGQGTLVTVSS VL: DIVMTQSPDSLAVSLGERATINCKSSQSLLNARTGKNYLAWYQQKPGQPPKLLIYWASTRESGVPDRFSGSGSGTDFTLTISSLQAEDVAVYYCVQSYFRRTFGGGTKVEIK"
observable = "Cell Binding cCD3 (FOB)"
result = "59 FOB"

[[record]]
binder = "ADI-45983 (antibody, V domains shown, also called Ab20) VH: QVQLVQSGAEVKKPGASVKVSCKASGFNIKDYYMHWVRQAPGQRLEWIGWIDLENANTVYDAKFQGRVTITRDTSAGTAYMELSSLRSEDTAVYYCARDAYGRYFYDVWGQGTLVTVSS VL: DIVMTQSPDSLAVSLGERATINCKSSQSLLNARTMKNYLAWYQQKPGQPPKLLIYAASTRESGVPDRFSGSGSGTDFTLTISSLQAEDVAVYYCAQSYFRRTFGGGTKVEIK"
observable = "Cell Binding cCD3 (FOB)"
result = "101 FOB"

